- Tested on: OVCAR-8 ovarian
- measurementNotes: NCI-60 one-dose screen, 48 h
- cond: 10 µM unless noted
This is part of a sample that, as a whole, favours compounds with a hit. Of some 83,000 tested, about 20% had one in any assay. Activity calls are given as the source filed them. Rule for the calls: active = growth percent below 10; inactive = the rest.
Possible outcomes: active, inactive

compound	assignedCategory
O=C(C=C=Nc1ccccc1)C(=O)N=C=Cc1ccccc1	inactive
CC[C@]1(O)CC2CN(CCc3c([nH]c4ccccc34)[C@@](C(=O)OC)(c3cc4c(cc3OC)N(C)[C@H]3[C@@](O)(C(=O)OC)[C@H](OC(C)=O)[C@]5(CC)C=CCN6CC[C@]43[C@@H]65)C2)C1 (some centres not stated)	inactive
C/C(=N/N=C(N)N)c1ccc(Cl)cc1	inactive
CC(C)c1ccc(C(=O)Nc2sc3c(CN(C)C)c(O)ccc3c2C(N)=O)cc1	inactive
O=C(O)C(=O)O	inactive
Nc1c2ccccc2nc2ccccc12 (tested in a mixture with another compound)	active
Cc1ccc([N+](=O)[O-])cc1NC(=O)Nc1cccc(F)c1	inactive
CCN(CC)CCOc1ccc(C2=C(c3ccccc3)CCc3cc(OC)ccc32)cc1	inactive
Cc1cc(C(=O)O)c(C)cc1C(=O)O	inactive
N#Cc1cnc2cc(OC[C@H](O)CO)c(NC(=O)CC3CSSC3)cc2c1Nc1ccc(OCc2cccc(F)c2)c(Cl)c1	active
COc1ccc(OC)c(/C=C/c2nc(=S)n(-c3ccc(Cl)cc3)[nH]2)c1	inactive
CN1C(=O)C(=Cc2cn(Cc3ccccc3)c3ccc(Br)cc23)C(=O)N(C)C1=O	inactive
CCN(CC)c1ccc(N=Nc2cc(Cl)ccc2Cl)c(NC(=O)CCC(=O)O)c1	inactive
COc1ccc(C2CC(c3ccc(OC)c(OC)c3)=NN2C(=O)c2cc(OC)c(OC)c(OC)c2)c(OC)c1 (configuration not stated)	inactive
CC(=O)c1ccc2c3c(n(C)c2c1)CCCC3	inactive
Nc1ccc2c3c(cccc13)-c1ccccc1-2	inactive
CCOc1cc(C(C)(C)C)ccc1C1=N[C@H](c2ccc(Cl)cc2)[C@H](c2ccc(Cl)cc2)N1C(=O)N1CCN(CC#Cc2cccc3c2CN([C@@H]2CCC(=O)NC2=O)C3=O)CC1	inactive
COc1ccc2[nH]c(-c3ccccc3)cc2c1	inactive
COc1ccc(-c2cnnn2-c2cc(OC)c3c(c2)OCO3)cc1	inactive
CCCc1cccc(CCC)c1O	inactive
Clc1cccc(Cc2cn3cc(-c4ccccc4)nc3s2)c1	inactive
Cc1nn(-c2ccccc2)c2c1oc(=O)c1cc(Cl)ccc12	inactive
COc1cc(/C=C/C(=O)c2c(-c3ccc(Cl)cc3)nc3sc(C)nn23)cc(OC)c1OC	inactive
Fc1ccc(-c2nnc(-c3c(-c4ccc(F)cc4)nc4ncccn34)o2)cc1	inactive
COc1cc(C2CC(=O)Nc3c2cc(Br)c2ccccc32)cc(Br)c1OC (configuration not stated)	inactive
O=C(/C=C/c1cccnc1)/C=C/c1cccnc1	active
Cc1[nH]n(C(N)=S)c(=O)c1N=Nc1ccc(F)c(Cl)c1	inactive
C[N+]1(CCc2ccccc2)CCC(CCC2CC[N+](C)(CCc3ccccc3)CC2)CC1 (configuration not stated)	inactive
C=C1c2c(C)nn(-c3ccc(C#CCOC4OC(CO)C(O)C(O)C4O)cc3)c2N(C)C23C[C@H]1C1(C)c4c(C)nn(-c5ccc(C#CCOC6OC(CO)C(O)C(O)C6O)cc5)c4N(C)C(C)(C[C@H]12)C3 (some centres not stated)	inactive
CC[N+](C)(CC)CCCC(C)Nc1ccnc2cc(Cl)ccc12 (configuration not stated)	inactive
S=C(Nc1ccc(C2=NCCN2)cc1)Nc1ccc(C2=NCCN2)cc1	inactive
N#CCCCCCn1c2ccccc2c2c3c(c4c5ccccc5[nH]c4c21)C(=O)N(O)C3=O	active
